The reported measurements were obtained from patent US20250320496A1.

I'd be grateful if you could share measured ABCB11 mRNA FC (5 μM ASO vs. UNT) for these entries.
Test system: human ABCB11 mRNA
Test: ASO treatment of primary human hepatocytes (PHH), ABCB11 mRNA by RT-qPCR normalized to B2M
Assay type: cell-based
Settings: primary human hepatocytes, 5 μM ASO, normalized to untreated PHHs (UNT)
Strand notation (5' to 3'): a small letter for the sugar, then the base; units joined by * are phosphorothioate-linked, units joined directly phosphodiester-linked; [ ] holds rarer units or linkages, { } end groups; capitals alone tell only the bases. e = 2'-O-(2-methoxyethyl) (MOE); l = locked nucleic acid (LNA); [5mC] = 5-methylcytosine
One number for each entry, in fold change.

CO-7065 (eT*e[5mC]*eT*lG*eG*eA*eA*lA*eA*eT*eA*lA*eT*eG*e[5mC]*l[5mC]*eT*eT*eT*e[5mC]; antisense) : 1.262

Would you mind listing ABCB11 mRNA FC (5 μM ASO vs. UNT) for each of the following substances?
1. CO-4517: parent ASO targeting a human ABCB11 regRNA, chemically modified to CO-7141 etc. (antisense e[5mC]*eT*eT*eA*eG*eG*eA*eG*eG*eA*eT*eT*eA*eT*eT*eT*eA*eA*e[5mC]*e[5mC])
2. CO-7158 (antisense eA*eG*eG*eT*eG*eG*eA*eG*e[5mC]*eA*eA*eA*e[5mC]*eT*eA*eG*eG*e[5mC]*eA*e[5mC])

1. 0.914
2. 1.229

Would you mind listing ABCB11 mRNA FC (5 μM ASO vs. UNT) for each of the following substances?
1. CO-4516 (antisense eA*eT*eG*eA*e[5mC]*eA*eT*eG*eA*eT*eA*eG*e[5mC]*eA*e[5mC]*e[5mC]*e[5mC]*eA*eA*e[5mC])
2. CO-7166: derivative ASO with additional chemical modifications based on parent ASO CO-4535 (antisense eG*eT*eT*eA*eT*eT*eA*eA*eT*eT*e[5mC]*eT*eA*e[5mC]*eA*eG*eA*eG*eG*eG)

[1.033, 1.517]

====

Tested on: human ABCB11 mRNA
Test: ASO treatment of primary human hepatocytes (PHH), ABCB11 mRNA by RT-qPCR normalized to B2M
Type: cell-based
Conditions: primary human hepatocytes, 5 μM ASO, normalized to untreated PHHs (UNT)
Strand notation (5' to 3'): a small letter for the sugar, then the base; units joined by * are phosphorothioate-linked, units joined directly phosphodiester-linked; [ ] holds rarer units or linkages, { } end groups; capitals alone tell only the bases. e = 2'-O-(2-methoxyethyl) (MOE); l = locked nucleic acid (LNA); [5mC] = 5-methylcytosine; d = 2'-deoxy (DNA)
I'd be grateful if you could share measured ABCB11 mRNA FC (5 μM ASO vs. UNT) for these entries.
Give bare numbers, in fold change.

Some entries whose results are on file:
CO-7054 (antisense eA*e[5mC]*e[5mC]*e[5mC]*e[5mC]*d[5mC]*d[5mC]*dT*d[5mC]*dA*d[5mC]*d[5mC]*dT*dT*dG*eG*eT*eT*e[5mC]*e[5mC]) : 1.323
CO-7205 (eT*eT*eG*eG*e[5mC]*dG*dT*dT*eA*dT*dT*dA*dA*eT*dT*d[5mC]*dT*eA*e[5mC]*eA*eG*eA; antisense) : 1.278
CO-7168 (antisense eT*eG*eG*e[5mC]*eG*dT*dT*dA*dT*dT*dA*dA*dT*dT*d[5mC]*eT*eA*e[5mC]*eA*eG) : 1.301
CO-4026 (antisense e[5mC]*eT*eT*eG*eT*e[5mC]*e[5mC]*eA*eG*eT*eG*eT*eA*eA*eA*e[5mC]*eA*eA*e[5mC]*eG) : 1.234

Would you mind listing ABCB11 mRNA FC (5 μM ASO vs. UNT) for each of the following substances?
1. CO-7012 (antisense eT*eG*eT*eG*eG*dA*dT*lG*dT*dA*lG*dA*dT*lG*dA*dA*lT*dG*dG*e[5mC]*eA*eA*eG*eG)
2. CO-4507 (antisense eG*eA*eA*eG*eA*eA*eT*eG*eG*eG*eA*eG*e[5mC]*eA*eA*eT*e[5mC]*e[5mC]*eG*e[5mC])

[0.985, 0.992]

====

Tested on: human ABCB11 mRNA
Assay: ASO treatment of primary human hepatocytes (PHH), ABCB11 mRNA by RT-qPCR normalized to B2M
Format: cell-based
Settings: primary human hepatocytes, 5 μM ASO, normalized to untreated PHHs (UNT)
Strand notation (5' to 3'): a small letter for the sugar, then the base; units joined by * are phosphorothioate-linked, units joined directly phosphodiester-linked; [ ] holds rarer units or linkages, { } end groups; capitals alone tell only the bases. e = 2'-O-(2-methoxyethyl) (MOE); [5mC] = 5-methylcytosine; d = 2'-deoxy (DNA)
MEASURE NAME: ABCB11 mRNA FC (5 μM ASO vs. UNT) (fold change)
Numbers only, in fold change.

CO-7100 (eA*eT*e[5mC]*eT*eG*dG*dA*dA*eA*dA*dT*dA*dA*eT*dG*d[5mC]*d[5mC]*eT*eT*eT*e[5mC]*eT; antisense) : 1.406

Would you mind listing ABCB11 mRNA FC (5 μM ASO vs. UNT) for each of the following substances?
1. CO-4499 (antisense eA*eA*eG*eG*eA*eA*eG*eG*eT*e[5mC]*eT*eA*eG*e[5mC]*eG*eG*eA*eG*eG*eT)
2. CO-7111 (TACATTTAGAGACAAAGAATCGCT; fully MOE, PS/PO backbone, 5-methylcytosine; listed as RNA; modified_base 1..24: mod_base = OTHER; note = Phosphorothioate linkage; note = 2'-O-(2-methoxyethyl) ribonucleotide; modified_base 3: mod_base = OTHER; note = 5-methyl cytidine; modified_base 13: mod_base)
3. CO-7018 (antisense eA*eA*eG*eT*eG*eA*eG*eG*e[5mC]*eA*eT*e[5mC]*eA*eG*eG*eT*eA*eA*eG*eT*eT*e[5mC]*e[5mC]*eT)
4. CO-7025 (antisense eA*eG*eT*eG*eA*eG*e[5mC]*eT*eT*eA*eT*e[5mC]*eT*eG*eG*eA*eA*eA*eA*eT)

1. 1.202
2. 1.027
3. 1.249
4. 1.259

====

I'd be grateful if you could share measured ABCB11 mRNA FC (5 μM ASO vs. UNT) for these entries.
System: human ABCB11 mRNA
Experiment: ASO treatment of primary human hepatocytes (PHH), ABCB11 mRNA by RT-qPCR normalized to B2M
Format: cell-based
Conditions: primary human hepatocytes, 5 μM ASO, normalized to untreated PHHs (UNT)
Strand notation (5' to 3'): a small letter for the sugar, then the base; units joined by * are phosphorothioate-linked, units joined directly phosphodiester-linked; [ ] holds rarer units or linkages, { } end groups; capitals alone tell only the bases. e = 2'-O-(2-methoxyethyl) (MOE); l = locked nucleic acid (LNA); [5mC] = 5-methylcytosine; d = 2'-deoxy (DNA)
Numbers only, in fold change.

CO-4040 (antisense eG*eT*eT*eT*e[5mC]*e[5mC]*e[5mC]*eA*eA*eG*e[5mC]*eA*e[5mC]*eA*e[5mC]*eT*e[5mC]*eT*eG*eT) : 0.921
CO-4059 (antisense eG*eT*eA*eA*eG*e[5mC]*eT*e[5mC]*eA*eG*eG*e[5mC]*eAeA*eA*eG*eG*eA*eG*eA) : 1.186
CO-6673 (antisense eG*eA*eA*eG*eG*dA*d[5mC]*dA*d[5mC]*dA*dA*dT*dT*dT*d[5mC]*eT*eG*eT*eA*eG) : 1.313

Would you mind listing ABCB11 mRNA FC (5 μM ASO vs. UNT) for each of the following substances?
1. CO-4044 (antisense eG*eT*eT*eG*eG*eG*eA*eT*eA*eG*e[5mC]*e[5mC]*eT*eG*eA*eA*eT*eT*e[5mC]*e[5mC])
2. CO-7096 (eA*e[5mC]*e[5mC]*e[5mC]*e[5mC]*l[5mC]*e[5mC]*eT*e[5mC]*eA*l[5mC]*e[5mC]*eT*eT*eG*lG*eT*eT*e[5mC]*e[5mC]; antisense)
3. CO-6979 (antisense eG*eT*eG*eA*eG*dG*d[5mC]*dA*dT*d[5mC]*dA*dG*dG*dT*dA*eA*eG*eT*eT*e[5mC])

1. 0.974
2. 1.157
3. 1.201

Would you mind listing ABCB11 mRNA FC (5 μM ASO vs. UNT) for each of the following substances?
1. CO-3999 (antisense eG*eG*e[5mC]*eA*eA*e[5mC]*e[5mC]*eT*e[5mC]*eG*eT*e[5mC]*e[5mC]*e[5mC]*e[5mC]*eT*e[5mC]*eA*e[5mC]*eT)
2. CO-7015 (antisense eA*eG*eT*eG*eA*dG*dG*d[5mC]*eA*dT*d[5mC]*dA*dG*eG*dT*dA*dA*eG*eT*eT*e[5mC]*e[5mC])

1. 1.076
2. 1.257
